# System: Panel NCI-60 (60 carcinoma cell lines)
# measurementProtocol: Growth inhibition of human NCI60 cells
# Format: functional, cell-based
readout: IC50

# givenSmiles, endpointValue
records = [
    ("CC(C)N1CCN(CCNC2CCN(c3cccc(-c4cc5cc(F)ccc5[nH]4)c3)CC2)CC1", "0.316 to 2 µM"),
]

###

# targetOfAssay: Transitional endoplasmic reticulum ATPase (Homo sapiens)
# Sequence (P55072 whole entry): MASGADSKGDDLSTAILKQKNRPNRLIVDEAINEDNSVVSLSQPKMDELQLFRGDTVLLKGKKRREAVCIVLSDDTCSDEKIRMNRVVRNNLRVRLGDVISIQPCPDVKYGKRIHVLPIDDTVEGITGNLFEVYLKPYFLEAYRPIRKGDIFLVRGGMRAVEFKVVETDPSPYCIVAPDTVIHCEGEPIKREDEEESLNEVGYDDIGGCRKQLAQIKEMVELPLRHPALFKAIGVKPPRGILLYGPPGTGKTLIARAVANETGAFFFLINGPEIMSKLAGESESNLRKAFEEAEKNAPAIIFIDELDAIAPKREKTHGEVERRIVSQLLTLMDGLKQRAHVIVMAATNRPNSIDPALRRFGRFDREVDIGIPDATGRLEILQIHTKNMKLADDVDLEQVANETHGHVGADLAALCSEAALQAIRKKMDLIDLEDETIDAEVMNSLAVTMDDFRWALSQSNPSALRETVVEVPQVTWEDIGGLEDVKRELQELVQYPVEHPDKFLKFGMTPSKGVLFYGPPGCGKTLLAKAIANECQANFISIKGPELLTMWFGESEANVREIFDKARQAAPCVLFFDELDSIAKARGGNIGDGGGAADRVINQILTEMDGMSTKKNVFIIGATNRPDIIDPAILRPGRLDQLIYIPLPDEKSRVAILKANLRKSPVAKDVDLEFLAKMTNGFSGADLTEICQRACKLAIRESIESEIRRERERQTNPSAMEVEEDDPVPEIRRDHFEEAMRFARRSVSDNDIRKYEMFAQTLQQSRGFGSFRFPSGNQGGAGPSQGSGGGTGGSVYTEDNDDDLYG
# measurementProtocol: Inhibition of human p97
pIC50: −log10 of the molar value.

# givenSmiles, targetOfAssay, pIC50
measured = [
    ("CC(C)N1CCN(CCNC2CCN(c3cccc(-c4cc5cc(F)ccc5[nH]4)c3)CC2)CC1", "Transitional endoplasmic reticulum ATPase (Homo sapiens)", "7.15 to 7.70"),
]
